The measured values listed here are drawn from ChEMBL document CHEMBL1961873.

# assayed target: Mitogen-activated protein kinase 13 (Homo sapiens) (UniProt O15264);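 further: reported value is the mean percent inhibition of p38delta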
# Sequence (O15264 whole entry): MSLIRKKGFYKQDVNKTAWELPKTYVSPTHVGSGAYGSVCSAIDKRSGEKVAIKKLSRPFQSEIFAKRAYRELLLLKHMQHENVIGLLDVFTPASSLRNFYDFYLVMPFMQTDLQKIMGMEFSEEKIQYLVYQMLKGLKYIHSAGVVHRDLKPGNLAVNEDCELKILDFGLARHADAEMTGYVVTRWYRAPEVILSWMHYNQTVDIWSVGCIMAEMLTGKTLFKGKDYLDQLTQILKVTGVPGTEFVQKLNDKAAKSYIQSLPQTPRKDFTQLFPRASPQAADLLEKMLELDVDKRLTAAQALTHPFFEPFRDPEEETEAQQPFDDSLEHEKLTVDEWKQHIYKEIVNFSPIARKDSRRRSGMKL
# condition info: at 0.1 µM
observation type: inhibition (%)

1. COc1ccc2ncn(-c3cc(O[C@H](C)c4ccccc4C(F)(F)F)c(C(N)=O)s3)c2c1	-0.27
2. CC1=C(C(=O)Nc2ccc3[nH]nc(C)c3c2)C(c2ccc(C(F)(F)F)cc2)CC(=O)N1 (stereo not given)	1.19
3. COc1cc(N2CCN(C(C)C)CC2)ccc1Nc1nc(Nc2cccc(F)c2C(=O)O)c2cc[nH]c2n1	4.97
4. NS(=O)(=O)c1cccc(N/C=C2\C(=O)Nc3ccccc32)c1	1.07
5. CS(=O)(=O)Nc1ccc(-c2cc(-c3ccccc3)cc(C(N)=O)c2N)cc1	1.96
